target: 5-LO (Homo sapiens)
Sequence (P09917 whole entry): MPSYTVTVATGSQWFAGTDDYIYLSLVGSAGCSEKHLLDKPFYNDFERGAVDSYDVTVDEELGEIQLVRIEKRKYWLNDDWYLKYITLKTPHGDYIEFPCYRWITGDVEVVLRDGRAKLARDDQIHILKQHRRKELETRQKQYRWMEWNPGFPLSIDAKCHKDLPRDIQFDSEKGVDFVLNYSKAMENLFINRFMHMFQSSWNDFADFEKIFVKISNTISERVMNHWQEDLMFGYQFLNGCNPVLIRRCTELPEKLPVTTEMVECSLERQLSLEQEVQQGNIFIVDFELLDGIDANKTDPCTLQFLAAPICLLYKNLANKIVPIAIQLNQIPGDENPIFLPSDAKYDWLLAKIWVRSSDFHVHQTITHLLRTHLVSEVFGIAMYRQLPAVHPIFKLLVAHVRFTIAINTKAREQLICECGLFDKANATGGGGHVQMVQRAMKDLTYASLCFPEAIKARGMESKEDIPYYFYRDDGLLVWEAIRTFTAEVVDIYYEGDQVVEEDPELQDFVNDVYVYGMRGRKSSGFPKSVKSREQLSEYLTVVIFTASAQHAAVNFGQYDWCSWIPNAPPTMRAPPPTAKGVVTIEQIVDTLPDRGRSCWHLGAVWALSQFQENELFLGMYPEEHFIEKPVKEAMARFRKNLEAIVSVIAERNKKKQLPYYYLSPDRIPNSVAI
protocol-notes: Fluorescence Intensity 5-LO Enzyme Assay
Type: biochemical
condition-notes: recombinant human 5-LO crude lysate, H2DCFDA oxidation, 3 μM arachidonic acid
experimental-readout: IC50 (nM)
Numbers only here, please. The scale is nM.

// query For the record Cn1nccc1-c1ccc(Sc2cccc(C3(C(N)=O)CCOCC3)c2)cc1F , what value of IC50 is listed for 5-LO (Homo sapiens)?
// result 204

// query For the record Cn1nccc1-c1ccc(Sc2cccc(C3(C(N)=O)CCOCC3)c2)cc1 , what value of IC50 is listed for 5-LO (Homo sapiens)?
// result 229
